target-under-test: Transient receptor potential cation channel subfamily V member 4 (Rattus norvegicus)
Sequence (Q9ERZ8 whole entry): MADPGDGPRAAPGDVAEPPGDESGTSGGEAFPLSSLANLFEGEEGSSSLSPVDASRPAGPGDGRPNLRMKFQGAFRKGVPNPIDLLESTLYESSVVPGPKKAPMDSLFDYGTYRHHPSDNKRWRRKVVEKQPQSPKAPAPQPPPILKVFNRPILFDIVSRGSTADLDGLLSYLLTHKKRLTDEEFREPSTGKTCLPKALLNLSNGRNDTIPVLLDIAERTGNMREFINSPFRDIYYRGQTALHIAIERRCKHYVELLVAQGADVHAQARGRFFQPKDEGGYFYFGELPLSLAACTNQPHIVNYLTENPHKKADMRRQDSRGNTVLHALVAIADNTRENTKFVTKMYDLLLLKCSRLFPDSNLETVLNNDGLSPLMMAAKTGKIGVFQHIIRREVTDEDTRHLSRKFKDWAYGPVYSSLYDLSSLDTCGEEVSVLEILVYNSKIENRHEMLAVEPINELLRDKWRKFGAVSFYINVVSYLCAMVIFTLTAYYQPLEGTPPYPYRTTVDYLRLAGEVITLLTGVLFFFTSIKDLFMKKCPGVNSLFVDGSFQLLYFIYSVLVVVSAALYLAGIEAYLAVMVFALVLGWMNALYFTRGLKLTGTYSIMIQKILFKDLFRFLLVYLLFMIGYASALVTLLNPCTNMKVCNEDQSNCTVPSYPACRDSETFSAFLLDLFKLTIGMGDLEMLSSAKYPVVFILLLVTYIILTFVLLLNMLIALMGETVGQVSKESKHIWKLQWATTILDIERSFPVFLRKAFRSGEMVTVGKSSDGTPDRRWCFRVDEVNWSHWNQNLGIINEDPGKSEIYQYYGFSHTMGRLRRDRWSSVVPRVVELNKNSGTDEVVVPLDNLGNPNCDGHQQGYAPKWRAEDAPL
procedure-details: Antagonist activity at rat TRPV4 assessed as inhibition of 4alpha-PDD-induced activation
recorded-metric: pIC50
Answer as the number alone; pIC50 is minus log10 of concentration in mol/L.

# compound-structure-string, reported-value
rows = [
    ("Cc1nc(C)c(-c2csc(Nc3ccc(C(=O)N4[C@@H]5CC[C@H]4C/C(=N/OC4CCN(C)CC4)C5)cn3)n2)s1", 7.24),
    ("Cc1nc(C)c(-c2csc(Nc3ccc(C(=O)N4[C@@H]5CC[C@H]4C[C@@H](OC(=O)NCCF)C5)cn3)n2)s1", 6.54),
    ("Cc1nc(C)c(-c2csc(Nc3ccc(C(=O)N4C5CCC4CN(c4ncc(Cl)cn4)C5)cn3)n2)s1", 7.80),
    ("Cc1nc(C)c(-c2csc(Nc3ccc(C(=O)N4C5CCC4CN(c4ccc(Cl)cc4)C5)cn3)n2)s1", 6.39),
]

Moving on to another compound below.
State recorded pIC50 with Transient receptor potential cation channel subfamily V member 4 (Rattus norvegicus), entry Cc1nc(C)c(-c2csc(Nc3ccc(C(=O)N4C5COCC4CC(=O)C5)cn3)n2)s1 , no comment.
6.10

----------
procedure-details: Stability in human liver microsomes assessed as parent compound remaining after 30 mins in presence or absence of NADPH
Format: ADME, microsome
measurement-conditions: read-out: Stability
Could you mark each record Y if its remaining at 0.5 h falls strictly under 60%, and N if it equals or exceeds it?

Some solved cases for reference:
# compound-structure-string, label-value
rows = [
    ("Cc1nc(C)c(-c2csc(Nc3ccc(C(=O)N4[C@@H]5CC[C@H]4C/C(=N/OC4CCN(C)CC4)C5)cn3)n2)s1", "N"),
    ("Cc1nc(C)c(-c2csc(Nc3ccc(C(=O)N4[C@@H]5CC[C@H]4C/C(=N/OCCCO)C5)cn3)n2)s1", "N"),
    ("COC(=O)N1CC2CCCC(C1)N2C(=O)c1ccc(Nc2nc(-c3sc(C)nc3C)cs2)nc1", "Y"),
]

Given Cc1nc(C)c(-c2csc(Nc3ccc(C(=O)N4C5CCC4CN(c4ccc(Cl)cn4)C5)cn3)n2)s1 , is recorded remaining at 0.5 h strictly lower than 60%?
N

Given Cc1nc(C)c(-c2csc(Nc3ccc(C(=O)N4[C@@H]5CC[C@H]4C/C(=N/OC[C@@H](O)C(F)(F)F)C5)cn3)n2)s1 , is recorded remaining at 0.5 h strictly lower than 60%?
Y

Given Cc1nc(C)c(-c2csc(Nc3ccc(C(=O)N4C5CCC4CN(c4ccc(Cl)cc4)C5)cn3)n2)s1 , is recorded remaining at 0.5 h strictly lower than 60%?
N

Given Cc1nc(C)c(-c2csc(Nc3ccc(C(=O)N4[C@@H]5CC[C@H]4C/C(=N/OCC(F)(F)F)C5)cn3)n2)s1 , is recorded remaining at 0.5 h strictly lower than 60%?
Y

----------
Each entry below lists one item and its recorded remaining at 0.5 h value.
procedure-details: Stability in rat liver microsomes assessed as parent compound remaining after 30 mins in presence or absence of NADPH
Assay type: ADME, microsome
measurement-conditions: read-out: Stability
Record the value in %, omitting the unit from your answer.

Worked set:
# compound, unit-info, remaining at 0.5 h
measured = [
    ("COC(=O)N1CCN(C(=O)c2ccc(Nc3nc(-c4sc(C)nc4C)cs3)nc2)C(C(F)(F)F)C1 (stereo not drawn)", "%", 49.2),
    ("Cc1nc(C)c(-c2csc(Nc3ccc(C(=O)N4[C@@H]5CC[C@H]4C/C(=N/OC[C@@H](O)C(F)(F)F)C5)cn3)n2)s1", "%", 49.6),
]

Moving on to another compound below.
Entry Cc1nc(C)c(-c2csc(Nc3ccc(C(=O)N4[C@@H]5CC[C@H]4C/C(=N/OCC(F)(F)F)C5)cn3)n2)s1 needs its remaining at 0.5 h filled in; supply it.
50.4
